System: 233499-124-R-J3-PDC complex spheroid viability
Assay: Anticancer human tumor 233499-124-R-J3-PDC patient-derived colon adenocarcinoma cell line growth inhibition [CLK]; active = viability on the fitted dose curve at most 10% of control; inactive = the rest
Settings: second compound 10 µM; first compound 10 µM
Write down the outcome that applies. Available outcomes: active, inactive

Record excerpt, results attached:
compound	group
CC(CO)NC(=O)c1cc(-c2ccc(Cl)cc2)nn(-c2cnn(C)c2)c1=O (stereo not given) + CN1CCN(c2cc(C(=O)Nc3cc4cc(-c5cnn(C)c5)ccc4cn3)ccn2)CC1	active
C#Cc1c(F)ccc2cc(O)cc(-c3ncc4c(N5CC6CCC(C5)N6)nc(OCC56CCCN5CC(F)C6)nc4c3F)c12 (stereo not given) + CN1CCN(c2cc(C(=O)Nc3cc4cc(-c5cnn(C)c5)ccc4cn3)ccn2)CC1	active
COC1C=CCC(C)C(C)S(=O)(=O)NC(=O)c2ccc3c(c2)N(CC2CCC21)CC1(CCCc2cc(Cl)ccc21)CO3 (stereo not given) + CN1CCN(c2cc(C(=O)Nc3cc4cc(-c5cnn(C)c5)ccc4cn3)ccn2)CC1	active
CC(=O)O[C@H]1C(=O)[C@@]2(C)[C@H]([C@H](OC(=O)c3ccccc3)[C@]3(O)C[C@H](OC(=O)[C@H](O)[C@@H](NC(=O)c4ccccc4)c4ccccc4)C(C)=C1C3(C)C)[C@]1(OC(C)=O)CO[C@@H]1C[C@@H]2O + CN1CCN(c2cc(C(=O)Nc3cc4cc(-c5cnn(C)c5)ccc4cn3)ccn2)CC1	active

Task item: Tell me the assay call for CC(Nc1ccc2c(c1)OCCn1cc(N3C(=O)OCC3C(F)F)nc1-2)C(N)=O (stereo not given) + CNC(=O)c1ccc(Nc2nc(OC3CCCC3)c3c(-c4ccc5nc(C)oc5c4)c[nH]c3n2)c(OC)c1 please.
Reply: inactive

###

Test system: 233499-124-R-J3-PDC complex spheroid viability
Test: Anticancer human tumor 233499-124-R-J3-PDC cell line growth inhibition [CLK]; active means viability on the fitted dose curve at most 10% of control; inactive means the rest;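 also: spheroids exposed to the drug combinations for seven days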
Conditions: second compound 3.16 µM; first compound 0.01 µM
Write down the outcome that applies. Available outcomes: TRUE for active, FALSE for inactive

molecule	group
CCN1CCN(Cc2ccc(Nc3ncc(F)c(-c4cc(F)c5nc(C)n(C(C)C)c5c4)n3)nc2)CC1 + CN1CCN(c2cc(C(=O)Nc3cc4cc(-c5cnn(C)c5)ccc4cn3)ccn2)CC1	TRUE
CCN1CCN(Cc2ccc(Nc3ncc(F)c(-c4cc(F)c5nc(C)n(C(C)C)c5c4)n3)nc2)CC1 + CNC(=O)c1ccc(Nc2nc(OC3CCCC3)c3c(-c4ccc5nc(C)oc5c4)c[nH]c3n2)c(OC)c1	FALSE
Cn1ncnc1[C@H]1c2n[nH]c(=O)c3cc(F)cc(c23)N[C@@H]1c1ccc(F)cc1 + CN1CCN(c2cc(C(=O)Nc3cc4cc(-c5cnn(C)c5)ccc4cn3)ccn2)CC1	TRUE
CCc1c2c(nc3ccc(O)cc13)-c1cc3c(c(=O)n1C2)COC(=O)[C@]3(O)CC + CNC(=O)c1ccc(Nc2nc(OC3CCCC3)c3c(-c4ccc5nc(C)oc5c4)c[nH]c3n2)c(OC)c1	FALSE
Cn1ncnc1[C@H]1c2n[nH]c(=O)c3cc(F)cc(c23)N[C@@H]1c1ccc(F)cc1 + CNC(=O)c1ccc(Nc2nc(OC3CCCC3)c3c(-c4ccc5nc(C)oc5c4)c[nH]c3n2)c(OC)c1	FALSE
CCc1c2c(nc3ccc(O)cc13)-c1cc3c(c(=O)n1C2)COC(=O)[C@]3(O)CC + CN1CCN(c2cc(C(=O)Nc3cc4cc(-c5cnn(C)c5)ccc4cn3)ccn2)CC1	TRUE

Switching to the query record.
Task item: Tell me the assay call for COc1c(OCCCN2CCOCC2)ccc2c3n(c(=NC(=O)c4cnc(N)nc4)nc12)CCN3 + CNC(=O)c1ccc(Nc2nc(OC3CCCC3)c3c(-c4ccc5nc(C)oc5c4)c[nH]c3n2)c(OC)c1 please.
Reply: FALSE

###

Overview of reported viability, T/C across a group of molecules:
Tested on: 233499-124-R-J3-PDC complex spheroid viability
Assay: Anticancer human tumor 233499-124-R-J3-PDC cell line growth inhibition [CLK];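 also: spheroids exposed to the drug combinations for seven days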;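 as to viability, T/C: percent viability relative to DMSO vehicle control wells taken as 100%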
Conditions: second compound 0.0316 µM; first compound 1 µM; stronger effect = lower value
Number only, in %; omit the unit.

Task item: Give the measured viability, T/C of C#Cc1c(F)ccc2cc(O)cc(-c3ncc4c(N5CC6CCC(C5)N6)nc(OCC56CCCN5CC(F)C6)nc4c3F)c12 (stereo not given) + CN1CCN(c2cc(C(=O)Nc3cc4cc(-c5cnn(C)c5)ccc4cn3)ccn2)CC1 .
Reply: 91.9

###

Tested on: 233499-124-R-J3-PDC complex spheroid viability
Test: Anticancer human tumor 233499-124-R-J3-PDC cell line growth inhibition [CLK];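 also: spheroids exposed to the drug combinations for seven days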;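 as to viability, T/C: percent viability relative to DMSO vehicle control wells taken as 100%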
Settings: second compound 1 µM; first compound 0.1 µM; stronger effect = lower value
From the text: A high-throughput screen of multi-cell type tumor spheroids was designed to identify active combinations of […] and targeted small molecules. Complex spheroids include a stromal component modeled by human endothelial cells (HUVEC) and fibroblasts modeled by human mesenchymal stem cells (MSCs). […] Compounds. […] If the clinical Cmax for an agent had not been determined, the highest concentration tested was 10 microM. […]
observed-property: viability, T/C (%)
Number only, in %; omit the unit.

Check out these entries, answers already filled in.
compound	assay-target	unit-label	viability, T/C
O=c1[nH]cc(F)c(=O)[nH]1 + CN1CCN(c2cc(C(=O)Nc3cc4cc(-c5cnn(C)c5)ccc4cn3)ccn2)CC1	233499-124-R-J3-PDC complex spheroid viability	%	1.2
CCN1CCN(Cc2ccc(Nc3ncc(F)c(-c4cc(F)c5nc(C)n(C(C)C)c5c4)n3)nc2)CC1 + CN1CCN(c2cc(C(=O)Nc3cc4cc(-c5cnn(C)c5)ccc4cn3)ccn2)CC1	233499-124-R-J3-PDC complex spheroid viability	%	4.68

Read the next record carefully.
Task item: Give the measured viability, T/C of CC1COCCN1c1cc(C2(S(C)(=N)=O)CC2)nc(-c2ccnc3[nH]ccc23)n1 (stereo not drawn) + CNC(=O)c1ccc(Nc2nc(OC3CCCC3)c3c(-c4ccc5nc(C)oc5c4)c[nH]c3n2)c(OC)c1 .
Reply: 59.8

###

System: 233499-124-R-J3-PDC complex spheroid viability
Assay: Anticancer human tumor 233499-124-R-J3-PDC cell line growth inhibition [CLK];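 also: spheroids exposed to the drug combinations for seven days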
Conditions: curve of compound
Text: A high-throughput screen of multi-cell type tumor spheroids was designed to identify active combinations of […] and targeted small molecules. Complex spheroids include a stromal component modeled by human endothelial cells (HUVEC) and fibroblasts modeled by human mesenchymal stem cells (MSCs). […] Compounds. […] If the clinical Cmax for an agent had not been determined, the highest concentration tested was 10 microM. […]
observed-property: IC50

In [3]: df
Out[3]:
                                   compound                              assay_target  observed_property  test_result
0  COc1ccc([C@@H](O)c2cc(-c3ncnc4cc(N5CCOCC5)ccc34)c(F)cc2Cl)nn1  233499-124-R-J3-PDC complex spheroid viability               IC50      > 10 µM
1  CC1COCCN1c1cc(C2(S(C)(=N)=O)CC2)nc(-c2ccnc3[nH]ccc23)n1 (centres undefined)  233499-124-R-J3-PDC complex spheroid viability               IC50      > 10 µM
2  CC(Nc1ccc2c(c1)OCCn1cc(N3C(=O)OCC3C(F)F)nc1-2)C(N)=O (centres undefined)  233499-124-R-J3-PDC complex spheroid viability               IC50      > 10 µM

Read the next record carefully.
Task item: Give the measured IC50 of `C=CC(=O)Nc1cc(Nc2nccc(-c3cn(C)c4ccccc34)n2)c(OC)cc1N(C)CCN(C)C` .
Reply: > 0.3 µM

###

Overview of reported viability, T/C across a group of compounds:
System: 233499-124-R-J3-PDC complex spheroid viability
Assay: Anticancer human tumor 233499-124-R-J3-PDC cell line growth inhibition [CLK];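 also: spheroids exposed to the drug combinations for seven days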;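 as to viability, T/C: percent viability relative to DMSO vehicle control wells taken as 100%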
Conditions: second compound 0.1 µM; first compound 3.16 µM; stronger effect = lower value

Check out these entries, answers already filled in.
compound	assay-target	viability, T/C
C=C(F)C(=O)N1CCN(c2nc(OCC3CCCN3C)nc3c2CCN(c2cccc4cccc(Cl)c24)C3)CC1CC#N (stereo not given) + CNC(=O)c1ccc(Nc2nc(OC3CCCC3)c3c(-c4ccc5nc(C)oc5c4)c[nH]c3n2)c(OC)c1	233499-124-R-J3-PDC complex spheroid viability	61.4%
CC(CO)NC(=O)c1cc(-c2ccc(Cl)cc2)nn(-c2cnn(C)c2)c1=O (stereo not given) + CN1CCN(c2cc(C(=O)Nc3cc4cc(-c5cnn(C)c5)ccc4cn3)ccn2)CC1	233499-124-R-J3-PDC complex spheroid viability	94.3%

Task item: Please state recorded viability, T/C (tested on 233499-124-R-J3-PDC complex spheroid viability) of Nc1ccn(C2OC(CO)C(O)C2(F)F)c(=O)n1 (stereo not given) + CN1CCN(c2cc(C(=O)Nc3cc4cc(-c5cnn(C)c5)ccc4cn3)ccn2)CC1
Reply: 23.2%

Task item: Also CC1(C)CCC(CN2CCN(c3ccc(C(=O)NS(=O)(=O)c4ccc(NCC5CCOCC5)c([N+](=O)[O-])c4)c(Oc4cnc5[nH]ccc5c4)c3)CC2)=C(c2ccc(Cl)cc2)C1 + CNC(=O)c1ccc(Nc2nc(OC3CCCC3)c3c(-c4ccc5nc(C)oc5c4)c[nH]c3n2)c(OC)c1 ?
Reply: 51.6%

Task item: Also CCCS(=O)(=O)Nc1ccc(F)c(C(=O)c2c[nH]c3ncc(-c4ccc(Cl)cc4)cc23)c1F + CNC(=O)c1ccc(Nc2nc(OC3CCCC3)c3c(-c4ccc5nc(C)oc5c4)c[nH]c3n2)c(OC)c1 ?
Reply: 85.5%
